Every entry's value here was drawn from paper PMC5925814.

# system: T1, C-terminal portion of ataxin-3 (residues 194–361) containing three UIM regions (UniProt P54252 194-361)
# T1 construct: Unlabelled in the NMR titrations; also called ataxin^194–361; tandem UIM region from ataxin-3; source: E. coli BL21(DE3), purified (Ni-NTA, TEV cleavage, second Ni-NTA)
# T1 sequence (P54252 194-361): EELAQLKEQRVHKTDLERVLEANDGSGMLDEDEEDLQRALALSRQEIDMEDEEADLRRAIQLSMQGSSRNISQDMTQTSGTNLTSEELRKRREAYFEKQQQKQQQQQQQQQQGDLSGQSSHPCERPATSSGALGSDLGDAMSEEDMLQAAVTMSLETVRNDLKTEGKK
# run_description: NMR titration; unlabelled ataxin^194–361 titrated into 15N-labelled Ubl variants, 1H-15N HSQC chemical shift changes, global fit for a single Kd (apparent); 150 uM Ubl domain (75 uM pUbl^P37L); 25 mM HEPES, 100 mM NaCl, 0.5 mM TCEP, pH 7.0, 25 °C
# condition: both partners purified
observation_type: pKd
pKd here is simply -log10 of the concentration when that concentration is written in mol/L.

// below: answered binders
parkin Ser-65–phosphorylated Ubl domain (1–76) P37L (domain or fragment, human, UniProt O60260 1-76, looked up, phosphoserine at 65, parkin, human, ubiquitin-like (Ubl) domain, residues 1-76, ARJP substitution P37L, phosphorylated at Ser-65; 15N-labelled; used at 75 uM in the NMR titration; also called pUbl^P37L; pP37L; source: E. coli BL21(DE3), purified (Ni-NTA, Ulp1 cleavage, Superdex75); phosphorylated at Ser-65) MIVFVRFNSSHGFPVEVDSDTSIFQLKEVVAKRQGVLADQLRVIFAGKELRNDWTVQNCDLDQQSIVHIVQRPWRK
3.64
parkin Ubl domain (1–76) S65E, phosphomimetic (domain or fragment, human, UniProt O60260 1-76, looked up, parkin, human, ubiquitin-like (Ubl) domain, residues 1-76, S65E; 15N-labelled for the NMR titrations; also called Ubl^S65E; source: E. coli BL21(DE3), purified (Ni-NTA, Ulp1 cleavage, Superdex75)) MIVFVRFNSSHGFPVEVDSDTSIFQLKEVVAKRQGVPADQLRVIFAGKELRNDWTVQNCDLDQQEIVHIVQRPWRK
3.64
parkin Ubl domain (1–76) P37L (domain or fragment, human, UniProt O60260 1-76, looked up, parkin, human, ubiquitin-like (Ubl) domain, residues 1-76, ARJP substitution P37L; 15N-labelled for the NMR titrations; Disease-associated (ARJP) substitution; also called Ubl^P37L; source: E. coli BL21(DE3), purified (Ni-NTA, Ulp1 cleavage, Superdex75)) MIVFVRFNSSHGFPVEVDSDTSIFQLKEVVAKRQGVLADQLRVIFAGKELRNDWTVQNCDLDQQSIVHIVQRPWRK
4.21
parkin Ser-65–phosphorylated Ubl domain (1–76) (domain or fragment, human, UniProt O60260 1-76, looked up, phosphoserine at 65, parkin, human, ubiquitin-like (Ubl) domain, residues 1-76, phosphorylated at Ser-65; 15N-labelled for the NMR titrations; the preparative phosphorylation is not described; also called pUbl; pSer-65 Ubl; source: E. coli BL21(DE3), purified (Ni-NTA, Ulp1 cleavage, Superdex75); phosphorylated at Ser-65) MIVFVRFNSSHGFPVEVDSDTSIFQLKEVVAKRQGVPADQLRVIFAGKELRNDWTVQNCDLDQQSIVHIVQRPWRK
3.19

Now examine the next entry.
// field: pKd; key: parkin Ubl domain (1–76), wild type (domain or fragment, human, UniProt O60260 1-76, looked up, parkin, human, ubiquitin-like (Ubl) domain, residues 1-76; 15N-labelled for the NMR titrations; also called WT Ubl domain; source: E. coli BL21(DE3), purified (Ni-NTA, Ulp1 cleavage, Superdex75)) MIVFVRFNSSHGFPVEVDSDTSIFQLKEVVAKRQGVPADQLRVIFAGKELRNDWTVQNCDLDQQSIVHIVQRPWRK ; value = 3.73
